Target: T1, CD47 on breast cancer cell line MCF-7 (UniProt Q08722 19-323, limits assumed)
T1 construct: whole, on cells; Endogenous CD47 of MCF-7 cells; also called CD47-expressing tumor cells (MCF-7); CD47-expressing cells
T1 sequence (Q08722 19-323 limits assumed): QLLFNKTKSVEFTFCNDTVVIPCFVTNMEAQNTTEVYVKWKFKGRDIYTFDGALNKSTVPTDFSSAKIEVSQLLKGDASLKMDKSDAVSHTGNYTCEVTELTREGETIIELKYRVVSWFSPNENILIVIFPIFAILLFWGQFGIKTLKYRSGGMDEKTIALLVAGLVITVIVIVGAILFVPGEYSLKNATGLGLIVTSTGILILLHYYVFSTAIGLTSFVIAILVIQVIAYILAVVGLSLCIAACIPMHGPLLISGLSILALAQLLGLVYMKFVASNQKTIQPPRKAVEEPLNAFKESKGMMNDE
Experiment: flow cytometry on MCF-7 cells, 1 ug antibody, PE anti-mouse IgG
Method: First, 1×10⁷ of breast cancer cell line MCF-7 expressing CD47 and 1 μg of 7C7, 5H4, […], 3H3, 3A5, and 1E7 antibody were reacted for 30 minutes, respectively, and then stained on surface with a secondary antibody. After staining, it was measured by flow cytometry. […]
Recorded metric: Mean
// response body must contain only the number

Solved cases below.
7C7 antibody (antibody, V domains shown, Monoclonal antibody from a hybridoma (mouse myeloma fusion), detected with anti-mouse IgG; In the ELISA hybridoma culture solution was used) VH: EVQLQQSGPELVKPGASVRMSCKASGYTFTSYVMHWVKQKPGQGLEWIGYINPYNDGTKYNEKFKGKSTLTSDKSSSTAYMELSSLTSEDSAVYCCARGRNRYDSWFAYWGQGTLVTVSA VL: DIQMTQTTSSLSASLGDRVTISCRASQDISNYLNWYQQKPDGTVKLLIYYTSRLHSGVPSRFSGSGSGTDYSLTISNLEQEDIATYFCQQGNTLPWTFGGGTKLEIK	6820
3A5 antibody (antibody, V domains shown, Hybridoma monoclonal antibody detected with anti-mouse IgG) VH: EVQLQQPGAELVKPGASVKMSCKASGYTFTSYWMHWMNQRPGQGLEWIGVIDPSDSYTSYNQKFKGKATLTVDTSSSTAYMQLSSLTSEDSAVYYCARGGKRAMDYWGQGTSVTVSS VL: DVLMTQTPLSLPVSLGDQASISCRSSQSLVHSNGNTYLHWYLQKPGQSPKLLIYKVSNRFSGVPDRFSGSGSGTDFTLKISRVEAEDLGVYFCSQSTHVPFTFGSGTKLEIK	15000
5A4 antibody (antibody, V domains shown, Hybridoma monoclonal antibody detected with anti-mouse IgG) VH: QVQLQQPGPELVRPGASVKMSCKASGYTFTNYWIHWVKQRPGQGLEWIGMIDPSNSATRLNQKFKDKATLNVDKSSNTAYMQLSSLTSEDSAVYYCARGGFAFDSWGQGTTLTVSS VL: DVLMTQTPLSLPVSLGDQASISCRSSQSLVHSNGNTYLHWYLQKPGQSPKLLIYKVSNRFSGVPDRFSGSGSGTDFTLKISRVEAEDLGVYFCSQSTHVPWTFGGGTKLEIK	16000
4E12 antibody (antibody, V domains shown, Hybridoma monoclonal antibody detected with anti-mouse IgG) VH: QIQFAQSGPELKKSGETVKISCRASGYTFTNYGMNWVKQAPGKGLKWMGWINTYTGEPTYADDFKGRFAFSLETSASTAYLQINNLKNEDMATYFCARGGGRGAMDYWGQGTTLTVSS VL: DVLMTQTPLSLPVSLGDQASISCRSSQSIVHSNGNTYLDWYLQKPGQSPKLLIYKVSKRFSGVPDRFSGSGSGTDFTLKISRVEAEDLGVYYCFQGSHVPFTFGSGTKLEIK	6030
5H4 antibody (antibody, V domains shown, Hybridoma monoclonal antibody detected with anti-mouse IgG) VH: QVQLQQPGAELVKPGTSVKMSCKASGYTFTNYWMHWVKQRPGQVLEWIGVIDPSDSYTSYNQKFKGKATLTVDTSSTTAYMQLSSLTSEDSAVYYCTRGGKRAMDYWGQGTSVTVSS VL: DVLMTQTPLSLPVSLGDQASISCRSSQSLVHSNGNTYLHWYLQKPGQSPKLLIYKVSNRFSGVPDRFSGSGSGTDFTLKISRVEAEDLGVYFCSQSTHVPFTFGSGTKLEIK	15500
3H3 antibody (antibody, V domains shown, Hybridoma monoclonal antibody detected with anti-mouse IgG) VH: EVQLQQPGPELVRPGASVKMSCKASGYTFTNYWMHWVKQRPGQGLEWIGMIDPSNSETRLNQKFKDKATLNVDKSSNTAYMQLSSLTSEDSAVYSCARGGFAFDSWGQGTTLTVSS VL: DVLMTQTPLSLPVSLGDQASISCRSSQSLVHNNGNTYLHWYLQKPGQSPKLLIYKVSNRFSGVPDRFRGSGSGTDFTLKISRVEAEDLGVYFCSQSTHVPWTFGGGTKLEIK	18000

Sample 1E7 antibody (antibody, V domains shown, Hybridoma monoclonal antibody detected with anti-mouse IgG) VH: EVQLQQSGPELIKPGASVKMSCKASGYIFTSYVVYWVKQKPGQGLEWIGYINPYNDGTKYNEKFKGKATLTSYKSSSTAYMELSSLTSADSAVYYCARGGFTTDYWGQGTTLTVSS VL: DVLMTQTPLSLPVSLGDQASISCRSSQSLVHSNGNTYLHWYLQKPGQSPKLLIYKVSNRFSGVPDRFSGSGSGTDFTLKISRVEAEDLGVYFCSQSTHVPYTFGGGTKLEIK ; Mean observed: 16100
